assay: Cytotoxicity assay on L6-cells (Alamar Blue); details: rat, Cytotox L6, Cytotoxicity against rat myoblast cells (L6)
Non-standard residues stand in square brackets, D forms with d. Residues, ends and D or L forms follow the SMILES beside them. *: point of attachment. Hexenoyl(2E,4S-Me) = CC[C@H](C)/C=C/C(=O)*; Leu(3R-OH) = CC(C)[C@@H](O)[C@H](N)C(=O)O; NH((S)CH(Me)CH2NMe2) = C[C@@H](CN(C)C)N*; NH(2-morpholinoethyl) = C(CN1CCOCC1)N*; Cyclopentanecarbonyl = O=C(C1CCCC1)*; Gly(octyl) = CCCCCCCC[C@H](N)C(=O)O; hCha = N[C@@H](CCC1CCCCC1)C(=O)O; X3 = O=C(c1coc(-c2ccccc2)n1)*; Hexanoyl = CCCCCC(=O)*; Aib = CC(C)(N)C(=O)O; βAla = NCCC(=O)O
observationType: IC50 at 70 h (µM)
// return numeric value only (unit: µM, not printed)

Worked examples, 3 compounds total:
{"columns": ["compound", "IC50 at 70 h [µM]"],
 "data": [
  ["CCCCCC(=O)N1CCC[C@H]1C(=O)N[C@@H](CCC1CCCCC1)C(=O)N[C@@H](CC(C)C)C(=O)NC(C)(C)C(=O)N[C@@H](CC(C)C)C(=O)N[C@@H](CC(C)C)C(=O)NC(C)(C)C(=O)NC(C)(C)C(=O)NCCC(=O)N[C@@H](C)CN(C)C [Compound 5942] (Hexanoyl-P[hCha]L[Aib]LL[Aib][Aib][βAla]-{NH((S)CH(Me)CH2NMe2)})", 0.148],
  ["CC[C@H](C)/C=C/C(=O)N1CCC[C@H]1C(=O)N[C@@H](C)C(=O)N[C@H](C(=O)NC(C)(C)C(=O)N[C@@H](CC(C)C)C(=O)N[C@@H](CC(C)C)C(=O)NC(C)(C)C(=O)NC(C)(C)C(=O)NCCC(=O)N[C@@H](C)CN(C)C)[C@H](O)C(C)C [Compound 5526] ({Hexenoyl(2E,4S-Me)}-PA[Leu(3R-OH)][Aib]LL[Aib][Aib][βAla]-{NH((S)CH(Me)CH2NMe2)})", 3.64],
  ["CCCCCCCC[C@H](NC(=O)[C@@H]1CCCN1C(=O)/C=C/[C@@H](C)CC)C(=O)N[C@H](C(=O)NC(C)(C)C(=O)N[C@@H](CC(C)C)C(=O)N[C@@H](CC(C)C)C(=O)NC(C)(C)C(=O)NC(C)(C)C(=O)NCCC(=O)NCCN1CCOCC1)[C@H](O)C(C)C [Compound 5569] ({Hexenoyl(2E,4S-Me)}-P[Gly(octyl)][Leu(3R-OH)][Aib]LL[Aib][Aib][βAla]-{NH(2-morpholinoethyl)})", 2.42]
]}

Consider CCCCCCCC[C@H](NC(=O)c1coc(-c2ccccc2)n1)C(=O)N[C@@H](CC(C)C)C(=O)NC(C)(C)C(=O)N[C@@H](CC(C)C)C(=O)N[C@@H](CC(C)C)C(=O)NC(C)(C)C(=O)NC(C)(C)C(=O)NCCC(=O)N[C@@H](C)CN(C)C [Compound 5943] (X3-[Gly(octyl)]L[Aib]LL[Aib][Aib][βAla]-{NH((S)CH(Me)CH2NMe2)}) . Its measured IC50 at 70 h is 0.552

Consider CCCCCCCC[C@H](NC(=O)C1CCCC1)C(=O)N[C@H](C(=O)NC(C)(C)C(=O)N[C@@H](CC(C)C)C(=O)N[C@@H](CC(C)C)C(=O)NC(C)(C)C(=O)NC(C)(C)C(=O)NCCC(=O)N[C@@H](C)CN(C)C)[C@@H](C)O [Compound 5641] (Cyclopentanecarbonyl-[Gly(octyl)]T[Aib]LL[Aib][Aib][βAla]-{NH((S)CH(Me)CH2NMe2)}) . Its measured IC50 at 70 h is 1.67

Consider CCCCCCCC[C@H](NC(=O)[C@@H]1CCCN1C(=O)/C=C/[C@@H](C)CC)C(=O)N[C@H](C(=O)NC(C)(C)C(=O)N[C@@H](CC(C)C)C(=O)N[C@@H](CC(C)C)C(=O)NC(C)(C)C(=O)NC(C)(C)C(=O)NCCC(=O)N[C@@H](C)CN(C)C)[C@@H](C)O [Compound 5520] ({Hexenoyl(2E,4S-Me)}-P[Gly(octyl)]T[Aib]LL[Aib][Aib][βAla]-{NH((S)CH(Me)CH2NMe2)}) . Its measured IC50 at 70 h is 0.93
